Biological target: human P2X3 receptor (Homo sapiens (Human), UniProt P56373)
Sequence (P56373 whole entry): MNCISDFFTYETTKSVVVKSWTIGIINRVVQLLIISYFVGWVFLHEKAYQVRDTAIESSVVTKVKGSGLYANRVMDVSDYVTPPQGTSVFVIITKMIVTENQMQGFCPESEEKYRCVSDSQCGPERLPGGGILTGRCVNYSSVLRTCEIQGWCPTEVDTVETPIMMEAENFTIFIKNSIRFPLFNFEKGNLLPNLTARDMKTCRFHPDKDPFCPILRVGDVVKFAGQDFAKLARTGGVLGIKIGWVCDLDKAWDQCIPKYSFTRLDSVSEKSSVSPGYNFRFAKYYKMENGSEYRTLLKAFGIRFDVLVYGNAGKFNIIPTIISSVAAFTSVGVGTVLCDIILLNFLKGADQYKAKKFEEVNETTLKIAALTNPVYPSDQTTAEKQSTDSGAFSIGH
Test: Evaluation of human P2X3 receptor inhibitory activity (Test Example 1-1, FDSS 3000, 96-well, 50 nM ATP)
Type: cell-based
Settings: human P2X3 receptor in C6BU-1 cells; Test Example 1-1 (compounds I-001 to I-300)
Metric Name: IC50 (nM)
Report the figure in nM without appending any unit label.

See these solved cases before continuing.
Cc1cnc(-c2c[nH]/c(=N\c3ccc(Oc4cccc(C(=O)O)n4)cc3)n(Cc3ccc(Cl)cc3)c2=O)o1 4
NC(=O)c1cccc(Oc2ccc(Nc3nc(=O)c(C(=O)NC4CCOCC4)cn3Cc3ccc(Cl)cc3)cc2)n1 5

Report IC50 for `Cc1noc(-c2c[nH]/c(=N\c3ccc(Oc4ccc(F)cn4)cc3)n(Cc3ccc(Cl)cc3)c2=O)n1` please.
31

For the compound `Cc1cnc(-c2c[nH]/c(=N\c3ccc(Oc4cccc(C#N)n4)cc3)n(Cc3ccc(Cl)cc3)c2=O)o1` , what IC50 is on record?
20

Requested field: IC50. Item: `CCc1oc2ccc(Nc3ncc(NC(=O)C4CCOCC4)c(=O)n3Cc3cccc(Cl)c3)cc2c1C`
20

Sample `O=C(O)c1cccc(Oc2ccc(Nc3cc(=O)[nH]c(=O)n3Cc3ccc(Cl)cc3)cc2)n1` — what was its IC50?
34

Value lookup for IC50; key = `CCOC(=O)c1cnc(Nc2ccc(Oc3cccc(C(=O)OC)n3)cc2)n(Cc2ccc(Cl)cc2)c1=O`
27
